Molecular target: L-lactate dehydrogenase A chain (Homo sapiens)
Assay: Inhibition of human recombinant carboxy-terminal his-tagged LDHA (1 to 331) expressed in Escherichia coli using pyruvate as substrate after 10 mins by UV endpoint analysis
Items are presented alongside their recorded IC50.
Give just the numeric value; µM need not be written.

In the examples that follow, each entry is paired with its recorded IC50.
compound	unitString	quantitativeReadout
N#Cc1c(-c2ccc(Cl)cc2)nc(SCC(=O)Nc2cccc(Cl)c2)[nH]c1=O	µM	55.8
N#Cc1c(-c2ccc(Cl)cc2)nc(SCC(=O)Nc2ccc(Cl)cc2)[nH]c1=O	µM	55.7
N#Cc1c(-c2ccc(Cl)cc2)nc(SCC(=O)Nc2ccc(F)c(Cl)c2)[nH]c1=O	µM	46.8
Cc1ccc(NC(=O)CSc2nc(-c3ccc(Cl)cc3)c(C#N)c(=O)[nH]2)cc1Cl	µM	27.6
CC(Sc1nc(-c2ccc(Cl)c(F)c2)c(C#N)c(=O)[nH]1)C(=O)Nc1ccc(S(N)(=O)=O)cc1 (racemic)	µM	0.71
N#Cc1c(-c2ccccc2)nc(SCC(=O)Nc2ccc(S(N)(=O)=O)cc2)[nH]c1=O	µM	12.1

IC50 reading for N#Cc1c(-c2ccc(Cl)cc2)nc(SCC(=O)Nc2ccc(S(N)(=O)=O)cc2)[nH]c1=O : 8.8

IC50 reading for COc1cccc(-c2nc(SCC(=O)Nc3ccc(S(N)(=O)=O)cc3)[nH]c(=O)c2C#N)c1 : 42.4

IC50 reading for Cc1c(Cl)cccc1NC(=O)CSc1nc(-c2ccc(Cl)cc2)c(C#N)c(=O)[nH]1 : 50.2

IC50 reading for CC(Sc1nc(-c2ccc(Cl)c(Cl)c2)c(C#N)c(=O)[nH]1)C(=O)Nc1ccc(S(N)(=O)=O)cc1 (racemic) : 0.75

IC50 reading for CC(Sc1ncc(C#N)c(=O)[nH]1)C(=O)Nc1ccc(S(N)(=O)=O)cc1 (racemic) : 12.5

IC50 reading for Cc1ccc(NC(=O)CSc2nc(-c3ccc(Cl)cc3)c(C#N)c(=O)[nH]2)cc1C : 38.6

IC50 reading for COc1ccc(NC(=O)CSc2nc(-c3ccc(Cl)cc3)c(C#N)c(=O)[nH]2)cc1Cl : 26.5

IC50 reading for CC(Sc1nc(-c2ccc(Cl)cc2)c(C#N)c(=O)[nH]1)C(=O)Nc1ccc(S(N)(=O)=O)cc1 (racemic) : 0.48

IC50 reading for CCC(Sc1nc(-c2ccc(Cl)cc2)c(C#N)c(=O)[nH]1)C(=O)Nc1ccc(S(N)(=O)=O)cc1 (racemic) : 0.65
